Assay: Apparent pKa of LNP formulations, TNS fluorescence assay
Format: physicochemical
Conditions: LNP cationic lipid/DSPC/cholesterol/DMG-PEG 50/10/38.5/1.5 mol %, pH 3 to 9
Checkbox rule: Apparant Pka lower than 7 = true (1); Apparant Pka not lower than 7 = false (0).

# strict comparison: is reported Apparant Pka < 7? input = CCCCCCCCCCCCOCC(CN(C)CCN(CCO)C1CCC1)OC(=O)CCCCC (centres unmarked)
true (1)

Find out if reported Apparant Pka for CCCCCCCCCCCCOCC(CN(CCCCCC(=O)OCC(CCCCCC)CCCCCCCC)CCN(CCO)C1CCCCCC1)OCCCCCCCCCCCC (centres unmarked) is less than 7
true (1)

State whether 7 exceeds Apparant Pka recorded for CCCCCCCCCCCCOCC(CN(CCCCCC(=O)OCC(CCCCCC)CCCCCCCC)CCN(CCO)C1CCCCC1)OCCCCCCCCCCCC (centres unmarked) .
true (1)

Is 7 strictly greater than the molecule's reported Apparant Pka? molecule: CCCCCCCCCCCCOCC(CN(CCO)CCCCCC(=O)OCC(CCCCCC)CCCCCCCC)OC(C)=O (centres unmarked)
true (1)

Does the reported Apparant Pka of the following molecule sit strictly below 7? CCCCCCCCCCC(=O)OCC(CCCCN(CCN(CCO)C1CCC1)C1CCC1)COC(=O)CC(CCCCCC)CCCCCCCC (centres unmarked)
true (1)

Lab note: Apparant Pka threshold 7. Does this molecule come in strictly under it? CCCCCCCCCCCCOCC(CN(CCCCCC(=O)OCC(CCCCCC)CCCCCCCC)CCN(CCO)C1CCCCCC1)OCCCCCC (centres unmarked)
true (1)

# TODO verify Apparant Pka < 7 strictly for this molecule: CCCCCCCCCCCCOCC(CN(CCO)C1CCC1)OCCCCCCCCCCCC (centres unmarked)
true (1)

Quick check: does CCCCCCCCC(CCCCCCCC)CNC(=O)CCOCC(CN(C)CCN(CCO)C1CCC1)OCCC(=O)NCC(CCCCCCCC)CCCCCCCC (centres unmarked) have Apparant Pka under 7?
false (0)

Input CCCCC/C=C\C/C=C\CCCCCCCC(=O)OCC(CCCCN(CCO)C1CCCCCC1)COC(=O)CC(CCCCCC)CCCCCCCC (centres unmarked) ; condition: Apparant Pka strictly below 7. Does it hold?
true (1)

A record lists CCCCCCCCC(CCCCCCCC)CNC(=O)CCOCC(CN(C)CCN(CCO)C1CCCC1)OCCC(=O)NCC(CCCCCCCC)CCCCCCCC (centres unmarked) . Is its Apparant Pka below 7?
false (0)

----------
Assay: Encapsulation efficiency of lipid nanoparticles, Quant-it Ribogreen RNA quantification assay
Format: physicochemical
Conditions: LNP with mRNA
Protocol: Briefly, a cationic lipid provided herein, DSPC, cholesterol, and PEG-lipid were solubilized in ethanol at a molar ratio of 50:10:38.5:1.5, and mRNA were diluted in 10 to 50 mM citrate buffer, pH=4. […] Lipid nanoparticle size were determined by dynamic light scattering using a Malvern Zetasizer Nano ZS (Malvern UK) using a 173° backscatter detection mode. […]
assayReadout: Encapsulation Efficiency (%)
Your answer is read as %, so omit the unit and give the number.

What does the record list as Encapsulation Efficiency for CCCCCCCCCCCCOCC(CN(C)CCN(CCO)C1CCCC1)OCCCCCC (stereo not shown) [Compound 5] ?
92.4

// Encapsulation Efficiency lookup, key: CCCCCCCCC(CCCCCC)CC(=O)OCC(CN(CCO)C1CCC1)OC(=O)CC(CCCCCC)CCCCCCCC (stereo not shown) [Compound 32]
44.6

Which Encapsulation Efficiency value is on record for CCCCCCCCCCCCOCC(CN(CCO)C1CCC1)OCCCCCCCCCCCC (stereo not shown) [Compound 1] ?
96.3

Entry under review: CCCCCCCCCCCCOCC(CN(CCO)C1CCC1)OCCCCCC(=O)OCC(CCCCCC)CCCCCCCC (stereo not shown) [Compound 4] . Reported Encapsulation Efficiency?
94.6

Recorded values, source patent US11964052B2.
